The reported measurements were obtained from ChEMBL document CHEMBL2046306.

# System: SK-MEL-5
# experimental.details: Growth inhibition of human SK-MEL-5 cells after 48 hrs by sulforhodamine B assay
# Type: functional
# run.conditions: SK-MEL-5, 48 h
Quick reference for GI50 among some molecules

{"test.smiles": "COc1ccc2c(c1)C(=O)c1c-2c(NCCN(C)C)nc2ccccc12", "unit.text": "µM", "GI50": 3.47}
{"test.smiles": "COc1ccc2c(c1)C(=O)c1c-2c(Nc2cccc(C(C)=O)c2)nc2ccccc12", "unit.text": "µM", "GI50": 5.25}
{"test.smiles": "COc1ccc2c(c1)C(=O)c1c-2c(NCCCN(C)C)nc2ccccc12", "unit.text": "µM", "GI50": 3.89}
{"test.smiles": "COc1ccc2c(c1)C(=O)c1c-2c(Nc2ccc(Cl)cc2)nc2ccccc12", "unit.text": "µM", "GI50": 15.1}
{"test.smiles": "COc1ccc2c(c1)/C(=N\\O)c1c-2c(Nc2ccc(/C(C)=N/O)cc2)nc2ccccc12", "unit.text": "µM", "GI50": 3.8}
{"test.smiles": "COc1ccc2c(c1)/C(=N\\OC(C)=O)c1c-2c(Nc2cccc(/C(C)=N/OC(C)=O)c2)nc2ccccc12", "unit.text": "µM", "GI50": 53.7}
{"test.smiles": "COc1ccc2c(c1)C(=O)c1c-2c(Nc2ccc(C(C)=O)cc2)nc2ccccc12", "unit.text": "µM", "GI50": 39.8}
{"test.smiles": "COc1ccc2c(c1)/C(=N\\OC(C)=O)c1c-2c(Nc2ccc(/C(C)=N/OC(C)=O)cc2)nc2ccccc12", "unit.text": "µM", "GI50": 52.5}
{"test.smiles": "COc1ccc2c(c1)/C(=N\\O)c1c-2c(Nc2cccc(/C(C)=N/O)c2)nc2ccccc12", "unit.text": "µM", "GI50": 28.2}
